# Test System: T1, human GIP receptor (human, UniProt P48546 22-466)
# T1 sequence (looked up): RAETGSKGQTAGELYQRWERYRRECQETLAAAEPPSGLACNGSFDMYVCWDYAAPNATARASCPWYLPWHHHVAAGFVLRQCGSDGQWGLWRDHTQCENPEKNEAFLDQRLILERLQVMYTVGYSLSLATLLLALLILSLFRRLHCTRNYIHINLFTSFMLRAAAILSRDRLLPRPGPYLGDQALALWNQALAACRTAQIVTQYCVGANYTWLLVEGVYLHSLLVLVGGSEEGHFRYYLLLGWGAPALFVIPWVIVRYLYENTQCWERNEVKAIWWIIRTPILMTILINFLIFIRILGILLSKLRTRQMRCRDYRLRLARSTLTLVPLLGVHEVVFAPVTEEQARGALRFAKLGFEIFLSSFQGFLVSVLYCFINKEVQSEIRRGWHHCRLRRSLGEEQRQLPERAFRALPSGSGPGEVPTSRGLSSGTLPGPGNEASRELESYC
# Assay Notes: cell-based or functional assay
Endpoint Name: EC50, cAMP (nM)

INSERT INTO assay_data (binder, measured_number) VALUES
  ('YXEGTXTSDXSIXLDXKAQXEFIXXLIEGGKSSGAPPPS (Aib2, αMeF(2F)6, 2TA10, αMeL13, Orn16, Aib20, D-Glu24, αMeY25, K17 and K31: K(AEEA2-(γ-Glu)-CO-(CH2)12-CO2H), C-terminal NH2) [Example 145]', 0.0286),
  ('YXEGTXTSDXSIXLDXKAQXEFIXKLIEGGPSSGAPPPS (Aib2, αMeF(2F)6, 4Pal10, αMeL13, Orn16, Aib20, D-Glu24, K17 and K25: K(AEEA2-(γ-Glu)-CO-(CH2)14-CH3), C-terminal NH2) [Example 32]', 0.002),
  ('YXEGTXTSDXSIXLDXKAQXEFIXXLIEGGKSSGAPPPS (Aib2, αMeF6, 4Pal10, αMeL13, Orn16, Aib20, D-Glu24, αMeF25, K17 and K31: K(AEEA2-(γ-Glu)-CO-(CH2)12-CO2H), C-terminal NH2) [Example 48]', 0.0182),
  ('YXEGTXTSDVSIXLDXKAQXEFIKXLIEGGPSSGAPPPS (Aib2, αMeF(2F)6, αMeL13, Orn16, Aib20, αMeY25, K17 and K24: K(AEEA2-(γ-Glu)-CO-(CH2)12-CO2H), C-terminal NH2) [Example 114]', 0.0613),
  ('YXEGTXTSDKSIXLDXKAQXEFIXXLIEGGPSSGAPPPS (Aib2, αMeF(2F)6, αMeL13, Orn16, Aib20, D-Glu24, αMeY25, K10 and K17: K(AEEA2-(γ-Glu)-CO-(CH2)10-CH3), C-terminal NH2) [Example 136]', 0.0069),
  ('YXEGTXTSDXSIXLDXKAQXEFIXXLIEGGKSSGAPPPX (Aib2, αMeF(2F)6, 4Pal10, αMeL13, Orn16, Aib20, D-Glu24, αMeY25, Orn39, K17 and K31: K(AEEA2-(γ-Glu)-CO-(CH2)12-CO2H), C-terminal NH2) [Example 154]', 0.0299);
